pIC50: −log10 of the molar value.
System: cGMP-inhibited 3',5'-cyclic phosphodiesterase 3A (Homo sapiens) | Read-out: pIC50
Sequence (Q14432 whole entry): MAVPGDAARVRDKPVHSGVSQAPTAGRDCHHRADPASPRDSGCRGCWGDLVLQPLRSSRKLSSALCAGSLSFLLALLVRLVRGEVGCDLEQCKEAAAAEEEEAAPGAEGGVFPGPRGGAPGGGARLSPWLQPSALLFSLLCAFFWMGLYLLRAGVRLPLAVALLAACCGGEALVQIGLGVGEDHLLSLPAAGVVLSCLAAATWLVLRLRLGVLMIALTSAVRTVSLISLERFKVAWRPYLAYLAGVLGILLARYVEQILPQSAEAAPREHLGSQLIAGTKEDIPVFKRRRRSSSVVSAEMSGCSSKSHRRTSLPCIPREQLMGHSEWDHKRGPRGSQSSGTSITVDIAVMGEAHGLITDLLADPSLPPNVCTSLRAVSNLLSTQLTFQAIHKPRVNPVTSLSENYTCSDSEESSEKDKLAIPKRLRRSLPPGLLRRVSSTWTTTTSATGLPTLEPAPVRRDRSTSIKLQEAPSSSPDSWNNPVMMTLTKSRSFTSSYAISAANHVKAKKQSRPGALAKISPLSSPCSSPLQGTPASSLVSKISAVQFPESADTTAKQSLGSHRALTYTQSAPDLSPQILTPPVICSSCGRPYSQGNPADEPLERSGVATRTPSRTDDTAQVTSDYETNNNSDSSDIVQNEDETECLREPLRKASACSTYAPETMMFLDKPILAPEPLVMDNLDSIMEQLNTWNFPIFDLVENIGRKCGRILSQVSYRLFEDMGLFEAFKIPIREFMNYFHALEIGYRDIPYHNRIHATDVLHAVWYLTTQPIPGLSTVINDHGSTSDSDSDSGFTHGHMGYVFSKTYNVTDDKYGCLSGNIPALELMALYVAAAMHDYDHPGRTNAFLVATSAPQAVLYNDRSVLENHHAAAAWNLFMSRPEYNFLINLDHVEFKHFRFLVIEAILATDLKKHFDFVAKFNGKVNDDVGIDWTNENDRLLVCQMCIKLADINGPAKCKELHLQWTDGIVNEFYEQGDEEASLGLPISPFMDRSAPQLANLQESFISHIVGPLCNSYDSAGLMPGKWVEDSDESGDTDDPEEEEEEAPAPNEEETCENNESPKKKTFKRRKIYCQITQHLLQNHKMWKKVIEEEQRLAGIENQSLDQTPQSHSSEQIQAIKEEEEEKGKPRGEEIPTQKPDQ
assay.metric: pIC50

> print(dat)
                                   molecule                               test.system  result
1  O=C(O)CNCCOc1ccc(Cl)c2c1C1(CCCCC1)NC(=O)N2  cGMP-inhibited 3',5'-cyclic phosphodiesterase 3A (Homo sapiens)  < 4.00
2       O=C1Nc2c(Cl)ccc(OCCO)c2C2(CCCCC2)N1  cGMP-inhibited 3',5'-cyclic phosphodiesterase 3A (Homo sapiens)  < 4.14
3  O=C1Nc2c(Cl)ccc(OCc3ccc(C(=O)O)o3)c2C2(CCCCC2)N1  cGMP-inhibited 3',5'-cyclic phosphodiesterase 3A (Homo sapiens)    4.97
4  CNCC(O)COc1ccc(Cl)c2c1C1(CCCCC1)NC(=O)N2 (stereo unspecified)  cGMP-inhibited 3',5'-cyclic phosphodiesterase 3A (Homo sapiens)  < 4.00
5  O=C1Nc2c(Cl)ccc(OCc3noc(O)n3)c2C2(CCCCC2)N1  cGMP-inhibited 3',5'-cyclic phosphodiesterase 3A (Homo sapiens)    4.66
6   O=C(O)COc1ccc(Cl)c2c1C1(CCCCC1)NC(=O)N2  cGMP-inhibited 3',5'-cyclic phosphodiesterase 3A (Homo sapiens)  < 4.17

Where do the numbers come from? From ChEMBL document CHEMBL1137828.
